Biological target: T1, recombinant human TL1A (human, UniProt O95150 71-251)
T1 construct: The ELISA method says only 'recombinant TL1A' coated on plates; homotrimeric cytokine; also called TNFSF15; recombinant TL1A
T1 chain: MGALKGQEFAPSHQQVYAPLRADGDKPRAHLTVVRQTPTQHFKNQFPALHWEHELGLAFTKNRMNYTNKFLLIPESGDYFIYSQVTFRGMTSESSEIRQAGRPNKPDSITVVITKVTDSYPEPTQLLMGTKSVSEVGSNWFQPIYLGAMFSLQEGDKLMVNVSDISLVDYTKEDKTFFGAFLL
Assay: competition ELISA on coated recombinant TL1A; competitor biotinylated TL1A-0002
measurement-type: Bioactivity relative to TL1A-0002 (fold)
Express the result in fold but write the number alone.

Worked examples follow.
TL1A-0324 (antibody, human IgG1, kappa, V domains shown, human IgG1 effector-function-minimized / human kappa) VH: QVQLVQSGAEVKKPGASVKVSCKASGYDFTYYGISWVRQAPGQGLEWMGWISTYNTNTHYARMLQGRVTMTTDTSTSTAYMELRSLRSDDTAVYYCARESYYGSGAYRGGMDVWGQGTTVTVSS VL: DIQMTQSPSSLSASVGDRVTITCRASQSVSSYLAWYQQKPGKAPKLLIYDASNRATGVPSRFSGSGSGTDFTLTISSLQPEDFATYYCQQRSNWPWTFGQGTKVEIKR | 1.2
TL1A-0268 (antibody, V domains shown, IgG1 effector-minimized/kappa) VH: QVQLVQSGAEVKKPGASVKVSCKASGYDYTYYGISWVRQAPGQGLEWMGWISTYGGNTHYAPSLQGRVTMTTDTSTSTAYMELRSLRSDDTAVYYCARESYYGSGAFRGGMDVWGQGTTVTVSS VL: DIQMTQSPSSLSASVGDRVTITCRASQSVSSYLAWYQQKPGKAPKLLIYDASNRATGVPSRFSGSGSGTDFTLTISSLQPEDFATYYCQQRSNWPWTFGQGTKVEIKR | 9.6
TL1A-0293 (antibody, human IgG1, kappa, V domains shown, human IgG1 effector-function-minimized / human kappa) VH: QVQLVQSGAEVKKPGASVKVSCKASGYDFTYYGVSWVRQAPGQGLEWMGWISTYNTVTHYAPSLQGRVTMTTDTSTSTAYMELRSLRSDDTAVYYCARESYYGSGAHRGGMDVWGQGTTVTVSS VL: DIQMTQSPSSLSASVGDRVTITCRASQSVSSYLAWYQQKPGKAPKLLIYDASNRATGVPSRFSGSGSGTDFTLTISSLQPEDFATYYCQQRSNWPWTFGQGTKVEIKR | 1.9

What value of measured Bioactivity relative to TL1A-0002 is listed for TL1A-0287 (antibody, human IgG1, kappa, V domains shown, human IgG1 effector-function-minimized / human kappa) VH: QVQLVQSGAEVKKPGASVKVSCKASGYDFTYYGVSWVRQAPGQGLEWMGWISTYNDNTHYAQKLQGRVTMTTDTSTSTAYMELRSLRSDDTAVYYCARESYYGSGAHRGGMDVWGQGTTVTVSS VL: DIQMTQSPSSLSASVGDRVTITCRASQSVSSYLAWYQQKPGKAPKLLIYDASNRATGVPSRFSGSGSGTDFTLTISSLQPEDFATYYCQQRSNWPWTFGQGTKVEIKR ?
2

Now give it for TL1A-0270 (antibody, human IgG1, kappa, V domains shown, human IgG1 effector-function-minimized / human kappa) VH: QVQLVQSGAEVKKPGASVKVSCKASGYDFSYYGISWVRQAPGQGLEWMGWISTYNDNTHYAPSLQGRVTMTTDTSTSTAYMELRSLRSDDTAVYYCARESYYGSGAFRGGMDVWGQGTTVTVSS VL: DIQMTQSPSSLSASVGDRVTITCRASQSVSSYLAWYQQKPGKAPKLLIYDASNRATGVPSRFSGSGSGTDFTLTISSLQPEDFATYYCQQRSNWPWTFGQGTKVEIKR too.
2.3
